These data points were gathered from the RepoRT retention time repository.

# assay-summary: Waters ACQUITY UPLC BEH C18, 100 × 2.1 mm, 1.7 µm, 40 °C, 0.3 to 0.4 mL/min, estimated dead time 0.63 min; A: water + 0.1% formic acid; B: methanol + 0.1% formic acid; gradient (min/%B) 0/0.5 0.1/0.5 10/80 10.1/99.5 12/99.5
# condition-notes: stereoisomer not certain
assay-readout: LC retention time (min)

Recorded results for 3 compounds are shown here.
CCC12CCCN3CCc4c(n(c5ccccc45)C(O)(C(=O)OC)C1)C32 (centres undefined): 4.5
COc1ccc(-c2cc(=O)c3c(O)cc(OC4OC(COC5OC(C)C(O)C(O)C5O)C(O)C(O)C4O)cc3o2)cc1 (centres undefined): 5.19
CC(C)=CCCC(C)(OC1OC(CO)C(O)C(O)C1O)C1CCC2(C)C1C(O)CC1C3(C)CCC(OC4OC(CO)C(O)C(O)C4O)C(C)(C)C3CCC12C (centres undefined): 7.66

[1] CSCC(NC(=O)CCC(NCC1(O)OCC(O)C(O)C1O)C(=O)O)C(=O)O (centres undefined)
[2] O=C1C(=Cc2ccc(O)c(O)c2)Oc2c1ccc(OC1OC(CO)C(O)C(O)C1O)c2O (centres undefined)
Task: Endpoint returns whichever of 1 and 2 has the numerically higher LC retention time. // caller expects the label of the chosen entry
Result: 2

[P] O=c1oc2cc(OC3OC(CO)C(O)C(O)C3O)ccc2c2oc3cc(O)ccc3c12 (centres undefined)
[Q] COc1cc(CC2C(=O)OCC2Cc2ccc(OC)c(OC)c2)ccc1O (centres undefined)
[R] CCC1C(=O)OCC1Cc1cncn1C (centres undefined)
Task: Sort the compounds on LC retention time; start with the lowest figure. // format: requested-order list of labels
Result: R, P, Q

[P] COc1cc(C(O)C(COC2OC(CO)C(O)C(O)C2O)Oc2c(OC)cc(-c3cc(=O)c4c(O)cc(O)cc4o3)cc2OC)ccc1O (centres undefined)
[Q] O=C(O)CC(=O)OCC1OC(Oc2c(-c3ccc(O)c(O)c3)oc3cc(OC4OC(CO)C(O)C(O)C4O)cc(O)c3c2=O)C(O)C(O)C1O (centres undefined)
Task: // compare: P vs Q , metric LC retention time, want the smaller // caller expects the label of the chosen entry
Result: Q
(Q: 3.11 min, P: 4.57 min)

---

# assay-summary: Waters ACQUITY UPLC BEH C18, 100 × 2.1 mm, 1.7 µm, 40 °C, 0.3 to 0.4 mL/min, estimated dead time 0.63 min; A: water + 0.1% formic acid; B: methanol + 0.1% formic acid; gradient (min/%B) 0/0.5 0.1/0.5 10/80 10.1/99.5 12/99.5
# condition-notes: stereoisomer not certain
assay-readout: LC retention time (min)

Recorded results for 5 compounds are shown here.
CCC1CN2CCc3cc(OC)c(OC)cc3C2CC1CC1NCCc2cc(OC)c(OC)cc21 (stereo not drawn): 3.41
CC1(C)CCC2(C(=O)O)CCC3(C)C(=CCC4C5(C)CC(O)C(O)C(C)(C)C5CCC43C)C2C1 (stereo not drawn): 9.77
O=C(C=Cc1ccc(O)c(O)c1)NCCCCN(CCCNC(=O)C=Cc1ccc(O)cc1)C(=O)C=Cc1ccc(O)c(O)c1: 5
COc1cc(-c2oc3cc(O)cc(O)c3c(=O)c2OC2OC(CO)C(O)C(O)C2O)cc(OC)c1O (stereo not drawn): 4.36
O=C1NCCc2c1[nH]c1ccccc21: 5.53

[a] O=C1CC(c2ccc(O)cc2)Oc2c1c(O)cc(O)c2C1OC(CO)C(O)C(O)C1O (stereo not drawn)
[b] COc1cc(C=Cc2ccc(O)cc2)cc(OC)c1
Task: Endpoint returns whichever of a and b has the numerically higher LC retention time. // caller expects the label of the chosen entry
Result: b

[I] O=C(C=Cc1ccc(O)cc1)OCC1OC(OC2C(c3c(O)cc4oc(-c5ccc(O)c(O)c5)cc(=O)c4c3O)OC(CO)C(O)C2O)C(O)C(O)C1O (stereo not drawn)
[II] CC1OC(OC2CCC3(C)C(CCC4(C)C3C=CC3=C5CC(C)(C)CCC5(CO)C(O)CC34C)C2(C)CO)C(O)C(OC2OC(CO)C(O)C(O)C2O)C1O (stereo not drawn)
[III] CC=CS(=O)CC(NC=C1OCC(O)C(O)C1O)C(=O)O (stereo not drawn)
Task: Order these by LC retention time, descending, and give the full ranking. // format: requested-order list of labels
Result: II, I, III
(II: 7.11 min, I: 3.81 min, III: 1.86 min)

[P] O=c1c(O)c(-c2ccc(O)cc2)oc2cc(O)cc(O)c12
[Q] O=c1cc(-c2ccc(O)cc2)oc2c(C3OC(CO)C(O)C3O)c(O)c(C3OC(CO)C(O)C(O)C3O)c(O)c12 (stereo not drawn)
Task: Endpoint returns whichever of P and Q has the numerically higher LC retention time. // caller expects the label of the chosen entry
Result: P

[a] O=C(O)CC(=O)OCC1OC(Oc2cc(O)c3c(=O)cc(-c4ccc(O)cc4)oc3c2)C(O)C(O)C1O (stereo not drawn)
[b] CC(C)=CCc1c(O)ccc2c1OCC(c1ccc(O)cc1O)C2=O (stereo not drawn)
Task: Endpoint returns whichever of a and b has the numerically higher LC retention time. // caller expects the label of the chosen entry
Result: b

---

# assay-summary: Waters ACQUITY UPLC BEH C18, 100 × 2.1 mm, 1.7 µm, 40 °C, 0.3 to 0.4 mL/min, estimated dead time 0.63 min; A: water + 0.1% formic acid; B: methanol + 0.1% formic acid; gradient (min/%B) 0/0.5 0.1/0.5 10/80 10.1/99.5 12/99.5
# condition-notes: stereoisomer not certain
assay-readout: LC retention time (min)

Recorded results for 2 molecules are shown here.
COc1cc(-c2[o+]c3cc(O)cc(OC4OC(CO)C(O)C(O)C4O)c3cc2OC2OC(CO)C(O)C(O)C2O)ccc1O (stereo not drawn): 2.79
CCCCCCCCC=CCCCCCCCC(=O)OCC(O)COP(=O)(O)OCCN (stereo not drawn): 10.2

[a] CCCC(=O)OC(CC(=O)[O-])C[N+](C)(C)C (stereo not drawn)
[b] CC1CNC2C(C)C3C(CC4C5CCC6CC(OC7OC(CO)C(OC8OC(CO)C(O)C(OC9OCC(O)C(O)C9O)C8OC8OC(CO)C(O)C(O)C8O)C(O)C7O)CCC6(C)C5CCC43C)OC2(O)C1 (stereo not drawn)
[c] CC1CCC2(OC1)OC1CC3C4CC=C5CC(O)CC(OC6OCC(O)C(O)C6OC6OC(C)C(O)C(O)C6O)C5(C)C4CCC3(C)C1C2C (stereo not drawn)
Task: Order these by LC retention time, descending, and give the full ranking. // format: requested-order list of labels
Result: c, b, a
(c: 8.57 min, b: 4.02 min, a: 2.18 min)

---

# assay-summary: Waters ACQUITY UPLC BEH C18, 100 × 2.1 mm, 1.7 µm, 40 °C, 0.3 to 0.4 mL/min, estimated dead time 0.63 min; A: water + 0.1% formic acid; B: methanol + 0.1% formic acid; gradient (min/%B) 0/0.5 0.1/0.5 10/80 10.1/99.5 12/99.5
# condition-notes: stereoisomer not certain
assay-readout: LC retention time (min)

CC(=O)c1cccc2oc(=O)[nH]c12: 3.93
O=c1[nH]c(=O)c2ncn(C3OC(CO)C(O)C3O)c2[nH]1 (centres undefined): 2.07

[A] CC(=O)OC1C(C)OC(OC2C(c3c(O)cc(O)c4c(=O)cc(-c5ccc(O)cc5)oc34)OC(CO)C(O)C2O)C(O)C1O (centres undefined)
[B] CCCCCC=CCC=CCCCCCCCC(=O)OCC(O)COP(=O)(O)OCCN (centres undefined)
Task: Endpoint returns whichever of A and B has the numerically higher LC retention time. // caller expects the label of the chosen entry
Result: B

[A] CC1OC(OC2CCC3(C)C(CCC4(C)C3C=CC35OCC6(CCC(C)(C)CC63)C(O)CC45C)C2(C)CO)C(O)C(OC2OC(CO)C(O)C(O)C2O)C1O (centres undefined)
[B] C=CC1C(OC2OC(CO)C(O)C(O)C2O)OC=C2C(=O)OCCC21O (centres undefined)
Task: Endpoint returns whichever of A and B has the numerically higher LC retention time. // caller expects the label of the chosen entry
Result: A
(A: 8.25 min, B: 3.2 min)

---

# assay-summary: Waters ACQUITY UPLC BEH C18, 100 × 2.1 mm, 1.7 µm, 40 °C, 0.3 to 0.4 mL/min, estimated dead time 0.63 min; A: water + 0.1% formic acid; B: methanol + 0.1% formic acid; gradient (min/%B) 0/0.5 0.1/0.5 10/80 10.1/99.5 12/99.5
# condition-notes: stereoisomer not certain
assay-readout: LC retention time (min)

Recorded results for 5 compounds are shown here.
O=C1CC(c2ccccc2O)Oc2ccccc21 (centres undefined): 7.45
OC1CCN2Cc3ccccc3N=C12 (centres undefined): 2.55
O=C1CC(c2ccc(O)c(O)c2)Oc2cc(OC3OC(CO)C(O)C(O)C3O)cc(O)c21 (centres undefined): 4.09
CC1OC(OC2C(OC3CCC4(C)C(CCC5(C)C4CC=C4C6CC(C)(C)CCC6(C(=O)O)CCC45C)C3(C)CO)OCC(O)C2O)C(O)C(O)C1O (centres undefined): 7.96
CS(=O)CCCCCCCC#N (centres undefined): 4.16

[1] COc1c(CO)c(OC2OC(COC3OCC(O)C(O)C3O)C(O)C(O)C2O)cc2c1C(=O)c1ccccc1C2=O (centres undefined)
[2] CCC(C)C(N)C(=O)NC(CCC(=O)O)C(=O)O (centres undefined)
Task: // compare: 1 vs 2 , metric LC retention time, want the smaller // caller expects the label of the chosen entry
Result: 2
(2: 1.98 min, 1: 5.23 min)
